Molecular target: catalytic domain of MMP-13 enzyme (Homo sapiens, UniProt P45452)
Test Readout: IC50

Let me know recorded IC50 for Cc1nsc2nc(C(=O)NCc3ccc4c(c3)CN(c3c(N)c(=O)c3=O)CC4)[nH]c(=O)c12 , thanks.
100 to 20000 nM

Let me know recorded IC50 for CCOC(=O)c1sc2nc(C(=O)NCc3ccc4c(c3)NCCO4)[nH]c(=O)c2c1C [Example 20b] , thanks.
100 to 20000 nM

----------
The entries below come with measured pIC50 values attached.
Molecular target: activated MMP-8 enzyme (Homo sapiens, UniProt P22894)
Sequence (P22894 101-467): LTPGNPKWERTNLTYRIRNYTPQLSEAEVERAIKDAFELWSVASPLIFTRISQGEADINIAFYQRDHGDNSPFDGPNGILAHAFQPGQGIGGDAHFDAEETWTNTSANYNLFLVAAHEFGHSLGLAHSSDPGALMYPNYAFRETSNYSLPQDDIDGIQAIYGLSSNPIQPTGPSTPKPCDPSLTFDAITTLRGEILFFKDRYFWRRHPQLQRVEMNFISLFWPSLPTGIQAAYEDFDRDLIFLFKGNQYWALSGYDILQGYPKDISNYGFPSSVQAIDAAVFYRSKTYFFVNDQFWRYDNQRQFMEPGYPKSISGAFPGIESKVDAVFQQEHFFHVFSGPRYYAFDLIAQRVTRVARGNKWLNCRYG
Assay: Assay for determining MMP-8 inhibition (OmniMMP fluorescent substrate)
Conditions: read-out: MMP-8 Activity (IC50 MMP-8), Group
pIC50: −log10 of the molar value.

Compound	Result
O=C1COc2ccc(CNC(=O)c3nc4ccc(CNC(=O)c5ccccc5)cc4c(=O)[nH]3)cc2N1	> 6.60
Cc1sc2nc(C(=O)NCc3ccc4c(c3)NC(=O)CO4)[nH]c(=O)c2c1C(C)c1ccccc1 (stereo not shown)	> 6.60

Let me know recorded pIC50 for O=C1COc2ccc(CNC(=O)c3nc4ccc([N+](=O)[O-])cc4c(=O)[nH]3)cc2N1 , thanks.
4.70 to 6.60

Let me know recorded pIC50 for Cc1c(CC(=O)O)sc2nc(C(=O)NCc3ccc4c(c3)CN(c3c(N)c(=O)c3=O)CC4)[nH]c(=O)c12 , thanks.
> 6.60

Let me know recorded pIC50 for Nc1c(N2CCc3ccc(CNC(=O)c4nc5cc(F)c(F)cc5c(=O)[nH]4)cc3C2)c(=O)c1=O , thanks.
4.70 to 6.60
